# System: Saccharomyces cerevisiae
# test.summary: protein stability index of tFT-peptide fusion (C-terminal peptide) (PSI (0-1 scale)); higher = more stable (slower turnover)
# condition.summary: genetic background: wild type; temperature: 30 C
measured.quantity: protein stability index
Output spec: single numeric token, no unit.

Param readout = protein stability index; param system = Saccharomyces cerevisiae; param query = MDTLEEMFTEEP [PRP42 C-terminal 12 aa] ; response: value
0.711

For the record GGLHFHGESFAL [FRE8 C-terminal 12 aa] , what value of protein stability index is listed for Saccharomyces cerevisiae?
0.712

Observed protein stability index on Saccharomyces cerevisiae for NNLNTNTSTTTQ [MIT1 C-terminal 12 aa] , please.
0.68
